meta.source: patent US20240132485A1

System: CCNK
Assay: NanoLuc-CCNK degradation assay (HEK293T_Nluc_CCNK-tagged cells)
Assay type: cell-based
Conditions: 4 h incubation, HEK293T_Nluc_CCNK-tagged cells
assay-endpoint: NanoLuc-CCNK degradation DC50 Activity Class

Some molecules with known NanoLuc-CCNK degradation DC50 Activity Class results, for comparison:
Cc1ccc2c(CC(=O)Nc3ccc(C4CC4)cn3)coc2c1C [Example 3-52]	B (0.50 μM≤DC50<0.10 μM)
O=C(Cc1c[nH]c2cccnc12)Nc1ncc(C(F)(F)F)s1 [Example 3-40]	D (10 μM≤DC50<1.0 μM)
Cc1cnc(NC(=O)Cc2coc3c(C)c(C)ccc23)s1 [Example 3-1]	B (0.50 μM≤DC50<0.10 μM)
Cc1ccc2c(CC(=O)Nc3ccc(C(C)C)cn3)coc2c1C [Example 3-51]	D (10 μM≤DC50<1.0 μM)

Pending molecule:
Problem: So what does the record say about NanoLuc-CCNK degradation DC50 Activity Class for Cc1ccc2c(CC(=O)Nc3cc(Cl)[nH]n3)coc2c1C [Example 3-49] ?
Result: B (0.50 μM≤DC50<0.10 μM)

###

Test system: KBM7 cells (wild-type)
Test: KBM7 CTG EC50 assay (UBE2M wild-type)
Format: cell-based, human
Details: ratio of anti-proliferative activity in KBM7 wild-type versus UBE2M knock-out cells (fold)
assay-endpoint: Ratio UBE2M WT to KO

Some molecules with known Ratio UBE2M WT to KO results, for comparison:
O=C(Cc1cn2cc(F)ccc2n1)Nc1cc(C(F)(F)F)[nH]n1	>10
O=C(Nc1ncc(C(F)(F)F)s1)C1CC(=O)N(c2ccc3c(c2)OCO3)C1 (stereo not drawn)	>10
O=C(Cc1c[nH]c2cccnc12)Nc1ncc(C(F)(F)F)s1	>200

Problem: So what does the record say about Ratio UBE2M WT to KO for "Cc1ccc2c(CC(=O)Nc3ccc(C(F)(F)F)cn3)coc2c1C" ?
Result: 24.7

Problem: So what does the record say about Ratio UBE2M WT to KO for "O=C(Cc1c[nH]c2nccc(Cl)c12)Nc1ncc(C(F)(F)F)s1" ?
Result: >4

###

Molecular target: DDB1-CDK12/Cyclin K ternary complex (Homo sapiens, UniProt Q16531+Q9NYV4)
Construct: expressed in transfected cells; host or cells: HEK293T wildtype cells, transient PEI transfection
Sequence (Q9NYV4 whole entry): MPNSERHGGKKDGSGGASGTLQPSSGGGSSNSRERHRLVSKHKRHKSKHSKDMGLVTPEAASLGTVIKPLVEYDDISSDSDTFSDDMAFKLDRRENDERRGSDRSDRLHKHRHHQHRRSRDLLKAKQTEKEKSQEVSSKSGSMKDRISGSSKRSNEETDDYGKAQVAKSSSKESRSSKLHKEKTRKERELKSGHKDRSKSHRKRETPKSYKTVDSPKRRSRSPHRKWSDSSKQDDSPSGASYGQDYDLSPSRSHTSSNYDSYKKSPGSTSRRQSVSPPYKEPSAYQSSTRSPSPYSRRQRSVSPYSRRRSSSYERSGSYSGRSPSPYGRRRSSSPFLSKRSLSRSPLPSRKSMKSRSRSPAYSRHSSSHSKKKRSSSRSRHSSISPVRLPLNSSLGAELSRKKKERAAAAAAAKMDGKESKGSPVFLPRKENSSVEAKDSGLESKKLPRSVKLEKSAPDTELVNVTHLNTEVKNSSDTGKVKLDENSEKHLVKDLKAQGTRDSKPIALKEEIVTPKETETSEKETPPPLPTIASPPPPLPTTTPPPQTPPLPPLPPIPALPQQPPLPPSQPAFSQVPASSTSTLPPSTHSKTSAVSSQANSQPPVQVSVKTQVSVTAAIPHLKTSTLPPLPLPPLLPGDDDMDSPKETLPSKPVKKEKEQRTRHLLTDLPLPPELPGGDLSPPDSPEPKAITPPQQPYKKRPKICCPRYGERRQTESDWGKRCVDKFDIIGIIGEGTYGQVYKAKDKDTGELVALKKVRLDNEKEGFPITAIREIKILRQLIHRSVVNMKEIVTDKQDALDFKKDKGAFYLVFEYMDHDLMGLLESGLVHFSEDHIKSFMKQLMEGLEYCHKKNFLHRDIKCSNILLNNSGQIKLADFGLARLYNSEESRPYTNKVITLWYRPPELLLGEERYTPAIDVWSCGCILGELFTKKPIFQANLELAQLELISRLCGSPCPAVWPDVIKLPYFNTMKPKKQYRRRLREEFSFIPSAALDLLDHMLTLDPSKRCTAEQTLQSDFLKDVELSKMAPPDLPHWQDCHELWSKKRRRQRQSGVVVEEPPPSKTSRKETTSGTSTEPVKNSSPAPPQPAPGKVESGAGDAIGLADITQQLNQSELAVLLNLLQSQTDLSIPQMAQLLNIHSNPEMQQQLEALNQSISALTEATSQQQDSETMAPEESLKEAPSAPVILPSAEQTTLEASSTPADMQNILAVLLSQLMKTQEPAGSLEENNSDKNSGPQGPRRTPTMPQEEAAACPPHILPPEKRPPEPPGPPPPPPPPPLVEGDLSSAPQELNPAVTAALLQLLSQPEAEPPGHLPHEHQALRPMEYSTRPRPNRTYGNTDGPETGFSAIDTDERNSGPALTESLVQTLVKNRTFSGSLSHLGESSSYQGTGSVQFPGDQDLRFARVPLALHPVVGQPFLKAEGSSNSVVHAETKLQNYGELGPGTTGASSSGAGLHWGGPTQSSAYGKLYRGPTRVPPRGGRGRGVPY
Sequence (Q16531 whole entry): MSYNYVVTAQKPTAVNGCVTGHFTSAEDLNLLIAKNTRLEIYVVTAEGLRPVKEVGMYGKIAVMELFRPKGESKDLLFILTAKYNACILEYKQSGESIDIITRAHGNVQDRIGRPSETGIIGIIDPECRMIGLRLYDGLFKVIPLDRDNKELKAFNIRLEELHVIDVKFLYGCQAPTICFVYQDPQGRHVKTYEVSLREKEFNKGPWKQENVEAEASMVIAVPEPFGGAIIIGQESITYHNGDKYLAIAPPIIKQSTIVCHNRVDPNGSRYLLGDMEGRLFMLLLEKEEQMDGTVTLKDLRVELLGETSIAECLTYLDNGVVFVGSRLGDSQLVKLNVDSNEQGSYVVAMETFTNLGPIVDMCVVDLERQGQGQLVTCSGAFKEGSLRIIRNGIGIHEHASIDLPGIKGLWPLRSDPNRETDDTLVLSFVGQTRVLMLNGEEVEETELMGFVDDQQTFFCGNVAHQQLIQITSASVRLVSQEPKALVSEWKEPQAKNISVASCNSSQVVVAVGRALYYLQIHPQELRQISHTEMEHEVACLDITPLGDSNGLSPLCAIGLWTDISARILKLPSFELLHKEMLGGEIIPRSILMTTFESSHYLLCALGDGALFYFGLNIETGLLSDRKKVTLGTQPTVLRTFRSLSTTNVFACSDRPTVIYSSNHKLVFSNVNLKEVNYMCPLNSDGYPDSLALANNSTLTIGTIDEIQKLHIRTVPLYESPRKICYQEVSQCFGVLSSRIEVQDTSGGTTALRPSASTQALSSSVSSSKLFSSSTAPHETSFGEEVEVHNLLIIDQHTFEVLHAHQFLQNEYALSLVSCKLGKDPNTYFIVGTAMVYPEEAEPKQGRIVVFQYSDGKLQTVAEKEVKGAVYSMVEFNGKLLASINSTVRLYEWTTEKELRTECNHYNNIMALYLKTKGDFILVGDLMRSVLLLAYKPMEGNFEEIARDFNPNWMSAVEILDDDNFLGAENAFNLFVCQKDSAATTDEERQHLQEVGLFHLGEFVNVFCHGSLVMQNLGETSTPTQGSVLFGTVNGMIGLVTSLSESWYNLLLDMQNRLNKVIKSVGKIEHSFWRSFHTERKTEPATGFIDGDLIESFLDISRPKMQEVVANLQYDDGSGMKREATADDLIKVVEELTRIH
Sequence (O75909 whole entry partner): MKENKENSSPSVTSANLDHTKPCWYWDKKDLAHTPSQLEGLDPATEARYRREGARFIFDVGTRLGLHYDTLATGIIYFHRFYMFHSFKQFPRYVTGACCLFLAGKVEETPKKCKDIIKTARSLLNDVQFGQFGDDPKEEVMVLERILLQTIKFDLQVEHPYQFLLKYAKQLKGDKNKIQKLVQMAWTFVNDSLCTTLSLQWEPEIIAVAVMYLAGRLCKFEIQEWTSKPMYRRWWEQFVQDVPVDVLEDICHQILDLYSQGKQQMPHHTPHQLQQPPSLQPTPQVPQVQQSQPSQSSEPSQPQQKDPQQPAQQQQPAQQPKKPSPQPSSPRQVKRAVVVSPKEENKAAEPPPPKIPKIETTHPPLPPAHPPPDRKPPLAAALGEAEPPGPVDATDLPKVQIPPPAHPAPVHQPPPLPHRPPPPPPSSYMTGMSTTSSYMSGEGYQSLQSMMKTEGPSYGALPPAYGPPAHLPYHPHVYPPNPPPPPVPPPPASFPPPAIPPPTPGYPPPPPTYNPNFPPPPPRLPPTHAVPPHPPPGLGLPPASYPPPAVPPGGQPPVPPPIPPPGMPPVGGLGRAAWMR
Experiment: NanoBRET fold-change assay (HaloTag_CDK12 / NanoLuc_DDB1 in HEK293T)
Format: cell-based
Conditions: 10 μM compound, 10 minutes
assay-endpoint: NanoBRET fold-change Activity Class

O=C(Cc1c[nH]c2ncccc12)Nc1ncc(C(F)(F)F)s1	B (3-4 fold increase)
O=C(Cc1ccc2ccncc2c1)Nc1ncc(C(F)(F)F)s1	B (3-4 fold increase)
O=C(Cc1c[nH]c2nccc(Cl)c12)Nc1ncc(C(F)(F)F)s1	B (3-4 fold increase)

###

Target: DDB1-CDK12/Cyclin K ternary complex (Homo sapiens, UniProt Q16531+Q9NYV4)
Test: NanoBRET EC50 assay (HaloTag_CDK12 / NanoLuc_DDB1 in HEK293T)
Settings: 10-point titration from 20 μM, HEK293T; read-out: NanoBRET EC50 Activity Class
assay-endpoint: EC50

Some compounds with known EC50 results, for comparison:
Cc1ccc(NC(=O)Cc2coc3c(C)c(C)ccc23)nc1	≤ 250 nM
Cc1cc(NC(=O)Cc2coc3c(C)c(C)ccc23)n[nH]1	≤ 250 nM
Cc1ccc2c(CC(=O)Nc3ccc(C4CC4)cn3)coc2c1C	≤ 250 nM
O=C(CCn1cnc2ccccc2c1=O)Nc1ncc(C(F)(F)F)s1	> 10000 nM

Problem: So what does the record say about EC50 for "O=C(Cc1cn2cc(F)ccc2n1)Nc1ccc(C2CC2)cn1" ?
Result: ≤ 250 nM

Problem: So what does the record say about EC50 for "CC(C)c1cnc(NC(=O)Cc2cn3cc(F)ccc3n2)s1" ?
Result: ≤ 250 nM

Problem: So what does the record say about EC50 for "COc1cc2ncn(CCC(=O)Nc3ncc(C(F)(F)F)s3)c(=O)c2cc1OC" ?
Result: > 10000 nM

###

Measured Ratio UBE2M WT to KO values are reported for all entries that follow.
Test system: KBM7 cells (wild-type)
Test: KBM7 CTG EC50 assay (UBE2M wild-type)
Assay type: cell-based, human
Conditions: ratio of anti-proliferative activity in KBM7 wild-type versus UBE2M knock-out cells (fold)
Experimental: This is a cell viability assay to measure the desired therapeutic effect, i.e. killing of cancer cells. […] KBM7 cells (wild-type or harboring α hypomorphic UBE2M mutation (Mayor-Ruiz et al., 2019)) were seeded in a white opaque 384-well plate at a density of 1000 cells per well in duplicate, in full medium (IMDM+10% FBS+1% penicillin-streptomycin). […] After 72 h of incubation, the cell viability was determined using the CellTiter-Glo® 2.0 reactant (Promega), pre-diluted 1:4 in mQ water. […]
Simply state the number, no unit and no words.

Problem: So what does the record say about Ratio UBE2M WT to KO for O=C(Nc1ncc(C(F)(F)F)s1)C1CC(=O)N(c2cc(F)cc(F)c2)C1 (stereo not drawn) ?
Result: 44.5

Problem: So what does the record say about Ratio UBE2M WT to KO for "Cc1cnc(NC(=O)Cc2coc3c(C)c(C)ccc23)s1" ?
Result: 25.3

###

Biological target: DDB1-CDK12/Cyclin K ternary complex (Homo sapiens, UniProt Q16531+Q9NYV4)
Construct: expressed in transfected cells; host or cells: HEK293T wildtype cells, transient PEI transfection
Assay: NanoBRET fold-change assay (HaloTag_CDK12 / NanoLuc_DDB1 in HEK293T)
Assay type: cell-based
Settings: 10 μM compound, 10 minutes
assay-endpoint: NanoBRET fold-change Activity Class

Some compounds with known NanoBRET fold-change Activity Class results, for comparison:
O=C(Nc1ncc(C(F)(F)F)s1)C1CC(=O)N(c2ccc(Cl)cc2)C1 (stereo not drawn)	C (2-3 fold increase)
O=C(Nc1ncc(C(F)(F)F)s1)C1CC(=O)N(c2ccccc2Cl)C1 (stereo not drawn)	C (2-3 fold increase)
O=C(CCn1cnc2ccccc2c1=O)Nc1ncc(C(F)(F)F)s1	B (3-4 fold increase)
Cc1cnc(NC(=O)Cc2coc3c(C)c(C)ccc23)s1	B (3-4 fold increase)
O=C(Nc1ncc(C(F)(F)F)s1)C1CC(=O)N(c2cc(F)ccc2F)C1 (stereo not drawn)	B (3-4 fold increase)

Problem: So what does the record say about NanoBRET fold-change Activity Class for O=C(Nc1ncc(C(F)(F)F)s1)C1CC(=O)N(c2ccc3c(c2)CCC3)C1 (stereo not drawn) ?
Result: B (3-4 fold increase)

Problem: So what does the record say about NanoBRET fold-change Activity Class for "O=C(Cc1cccc2ncccc12)Nc1ncc(C(F)(F)F)s1" ?
Result: B (3-4 fold increase)

###

System: KBM7 cells (wild-type)
Experiment: KBM7 CTG EC50 assay (UBE2M wild-type)
Assay type: cell-based, human
Settings: ratio of anti-proliferative activity in KBM7 wild-type versus UBE2M knock-out cells (fold)
# label = 1 (yes) if Ratio UBE2M WT to KO < 40 else 0 (no)

Example results:
Cc1ccc2c(CC(=O)Nc3cc(Cl)[nH]n3)coc2c1C	1 (yes)
O=C(Cc1cn2cc(Cl)ccc2n1)Nc1cc(C2CC2)[nH]n1	0 (no)
Cc1ccc2c(CC(=O)Nc3ncc(C(C)C)s3)coc2c1C	1 (yes)
O=C(Cc1cc2ccccc2s1)Nc1ncc(C(F)(F)F)s1	1 (yes)
O=C(Cc1cn2cc(F)ccc2n1)Nc1ccc(C2CC2)cn1	0 (no)

Problem: Is Ratio UBE2M WT to KO of "CC(C)c1cc(NC(=O)Cc2cn3cc(F)ccc3n2)n[nH]1" strictly below 40?
Result: 0 (no)

Problem: Is Ratio UBE2M WT to KO of "O=C(Cc1ccc2ccncc2c1)Nc1ncc(C(F)(F)F)s1" strictly below 40?
Result: 0 (no)

###

Target: DDB1-CDK12/Cyclin K ternary complex (Homo sapiens, UniProt Q16531+Q9NYV4)
Construct: expressed in transfected cells; host or cells: HEK293T wildtype cells, transient PEI transfection
Test: NanoBRET fold-change assay (HaloTag_CDK12 / NanoLuc_DDB1 in HEK293T)
Type: cell-based
Details: 10 μM compound, 10 minutes
assay-endpoint: NanoBRET fold-change Activity Class

Some compounds with known NanoBRET fold-change Activity Class results, for comparison:
O=C(Cc1cn2cc(F)ccc2n1)Nc1cc(Br)[nH]n1	C (2-3 fold increase)
O=C(Nc1ncc(C(F)(F)F)s1)C1CC(=O)N(Cc2ccccc2)C1 (stereo not shown)	B (3-4 fold increase)
O=C(Nc1ncc(C(F)(F)F)s1)C1CC(=O)N(c2ccc3c(c2)OCO3)C1 (stereo not shown)	B (3-4 fold increase)
Cc1ccc2c(CC(=O)Nc3ccc(Cl)cn3)coc2c1C	B (3-4 fold increase)
Cc1ccc2c(CC(=O)Nc3ccc(C(C)C)cn3)coc2c1C	B (3-4 fold increase)
O=C(Cc1cn2cc(F)ccc2n1)Nc1cc(C(F)(F)F)[nH]n1	C (2-3 fold increase)
Cc1ccc2c(CC(=O)Nc3ccc(C(F)(F)F)cn3)coc2c1C	C (2-3 fold increase)
O=C(Cc1cn2cc(F)ccc2n1)Nc1cc(Cl)[nH]n1	C (2-3 fold increase)

Problem: So what does the record say about NanoBRET fold-change Activity Class for O=C(Nc1ncc(C(F)(F)F)s1)C1CC(=O)N(c2ccc(F)c(F)c2)C1 (stereo not shown) ?
Result: B (3-4 fold increase)

Problem: So what does the record say about NanoBRET fold-change Activity Class for "Cc1cccn2c(CC(=O)Nc3ncc(C(F)(F)F)s3)cnc12" ?
Result: C (2-3 fold increase)

Problem: So what does the record say about NanoBRET fold-change Activity Class for "O=C(Cc1cc2ccccc2o1)Nc1ncc(C(F)(F)F)s1" ?
Result: C (2-3 fold increase)

Problem: So what does the record say about NanoBRET fold-change Activity Class for "CC(C)c1cc(NC(=O)Cc2cn3cc(F)ccc3n2)n[nH]1" ?
Result: B (3-4 fold increase)
